Test: inhibition of 3D7 malaria parasite growth – strain 3D7 (AID 2306);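 further: 0% = DMSO wells and 100% = chloroquine plus artemisinin control wells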
Details: P. falciparum 3D7 erythrocytic growth, LDH absorbance, 72 h; at 2 µM; hits give high values
Calls of active or inactive are those of the source. How the calls were made is not given here.
measuredQuantity: growth inhibition

• COc1ccc2nc3cc(Cl)ccc3c(N)c2c1 = 102% (active)
• COc1ccc(CNc2ccnc3cc(OC)ccc23)cc1 = 100% (active)
• CCOc1cccc(C(=O)Nc2cccc(CN3CCCN(Cc4cccc(O)c4)CC3)c2)c1 = 85% (active)
• C[C@@H]1CN(CCCn2c3ccccc3c3ccc(C(=O)CCCN(C)C)cc32)C[C@H](C)N1 = 100% (active)
• Cc1cccc2[nH]c(-c3ccc(-c4ccc(CN5CCC(CCN6CCCCC6)CC5)cc4)cc3)nc12 = 100% (active)

---

Target: L-lactate dehydrogenase (Plasmodium falciparum (isolate CDC / Honduras))
Assay: PfLDH activity inhibition – cell lysate, 3D7 strain, counter-screen for P. falciparum growth inhibition project (AID 2304);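 further: 0% = vehicle and 100% = reference inhibitor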
Conditions: P. falciparum 3D7 crude extract, LDH APAD/NBT absorbance; at 2 µM; hits give high values
measuredQuantity: inhibition (%)

- COc1cccc(-c2cccc(CNC3CCN(CC4Cn5c(=O)ccc6ccc(F)c4c65)CC3)c2)c1 (centres undefined): 4
- CN(C)CCCN1CCN(C(=O)c2cc3cc(-c4ccccc4)ccc3n2S(=O)(=O)c2ccccc2)CC1: 4
- CC(C)CNCc1cccc(-c2cccc(CN(CCN(C)C)C(=O)NCCc3ccccc3)c2)c1: -4
- Cc1ccc2c(=O)cc(CCc3cccc(F)c3F)n(CC(=O)N(Cc3ccc(-c4ccc(C(F)(F)F)cc4)cc3)C3CCN(C(C)C)CC3)c2n1: -2
- Cc1[nH]c2c(NCc3ccc(F)cc3)nccc2c1C: -3
- CN1CCCC(CN2CCN(Cc3ccc(-c4ccc(-c5nc6ccc(F)cc6[nH]5)s4)cc3)CC2)C1 (centres undefined): -2
- COc1ccccc1-c1ccc(C(=O)NCC2CCCN(Cc3cccc(C(F)(F)F)c3)C2)s1 (centres undefined): 3
- CCOc1ccc(C(C)NC(=O)Cc2ccccc2F)cc1OCC (centres undefined): 6
- CN1Cc2cc(NC(=O)/C=C/c3ccccc3Cl)ccc2C(C)(C)C1: -3

---

Test: HepG2 cytotoxicity, primary screen, cytotoxicity control for P. falciparum antimalarial project, cell-based, ATP luminescence (AID 2303);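 further: 0% = DMSO wells and 100% = digitonin-killed cells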
Conditions: HepG2 viability, 24-48 h, at 10 µM, hits give high values
The source made the active and inactive calls.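 Rule for the calls: active = inhibition above 50%; inactive = the rest.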
// reported inhibition for each item listed
measuredQuantity: inhibition

* CCOC(=O)C1=C(C)N=c2sc(=Cc3cc(Cl)ccc3O)c(=O)n2C1c1ccc2c(c1)OCO2 (centres undefined) | -2% (inactive)
* O=C(O)c1cc(C(F)(F)F)co1 | -4% (inactive)
* O=C(/C=C/c1ccc(Cl)c(Cl)c1)N1CCC(CN2CCC(Cc3nc4ccccc4[nH]3)CC2)CC1 | 34% (inactive)
* C[C@H](Cc1ccc(S(=O)(=O)c2ccc(C[C@@H](C)NC[C@H](O)c3cccc(Cl)c3)cc2)cc1)NC[C@H](O)c1cccc(Cl)c1 | 100% (active)
* CCOC(=O)C1=C(C)NC2=C(C(=O)CCC2)C1c1cn(Cc2ccc(Cl)cc2Cl)nc1-c1ccccc1 (centres undefined) | -5% (inactive)
* Cc1cc(NC(=O)c2ccc(-c3ccccc3)cc2)no1 | 5% (inactive)
* NC(=O)C1Cc2ccccc2CN1CC(=O)Nc1ccccc1Sc1ccccc1 (centres undefined) | 5% (inactive)
* CCN(CC)CC(O)CNc1c2ccc([N+](=O)[O-])cc2nc2cc(OC)c(OC)cc12 (centres undefined) | 78% (active)
* Cc1ccc(CNC(=O)c2cnc(N3CCN(c4ccncc4)CC3)c(Cl)c2)cc1 | 27% (inactive)

---

Test: HepG2 cytotoxicity, primary screen, cytotoxicity control for P. falciparum antimalarial project, cell-based, ATP luminescence (AID 2303);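 further: 0% = DMSO wells and 100% = digitonin-killed cells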
Settings: HepG2 viability, 24-48 h, at 10 µM, hits give high values
measuredQuantity: inhibition (%)

* COc1ccc(CNC(=O)c2cnc3cc(-c4c(C)noc4C)ccc3c2Nc2ccccc2C(C)(C)C)cc1 | 9
* CC(=O)CC(=O)N1CCN(c2ccccc2)CC1 | 54
* CSc1ccccc1NC(=S)NC1CCN(CCCCCNC(=O)/C=C/c2ccc(Cl)c(Cl)c2)CC1 | 19
* N#CC1(CCCNCCc2ccc(O)cc2)CCCc2c(O)cccc21 (stereo not given) | -2
* Cn1c(N)c(C(=O)CSc2nnc(-c3cccs3)n2Cc2ccccc2)c(=O)n(C)c1=O | -13

---

Assay: HepG2 cytotoxicity, primary screen, cytotoxicity control for P. falciparum antimalarial project, cell-based, ATP luminescence (AID 2303);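 further: 0% = DMSO wells and 100% = digitonin-killed cells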
Settings: HepG2 viability, 24-48 h, at 10 µM
Calls of active or inactive are those of the source.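 The calls were made as follows: active = inhibition above 50%; inactive = the rest.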
Classes used: active, inactive

- Cc1cccc2[nH]c(-c3ccc(-c4ccc(CNCc5cccc(N)c5)cc4)s3)nc12: inactive
- Cc1ccc(NC(=O)c2cc(S(=O)(=O)NC(C)(C)C)ccc2C)nc1: inactive
- O=C(Nc1ccc(C(=O)OCC2CCCCC2)cc1)N[C@@H](Cc1ccc(O)cc1)C(=O)NC1CCN(Cc2ccc(O)cc2)C1 (stereo not given in full): inactive
- COc1ccc(CNC(=O)c2cnc3c(O)cccc3c2Nc2cccc(NC(=O)c3ccc(Cl)c([N+](=O)[O-])c3)c2)cc1: inactive
- CN(CCCCNC(=O)/C=C/c1ccccc1)C1CC2(CCN(C(=O)OC(C)(C)C)CC2)c2ccccc21 (stereo not given): inactive
- O=C(Nc1nc(-c2ccccn2)cc2ccccc12)c1cccc(Cl)c1: active
- Cc1nc2ccccc2c(=O)n1N=Cc1ccccc1[N+](=O)[O-]: inactive
- C[C@@H]1CN(c2cnn(Cc3cccc(NC(=O)Nc4ccc(F)cc4[N+](=O)[O-])c3)c(=O)c2Cl)C[C@H](C)N1: inactive
- Cn1cc(CCNc2ccnc(N3CCC(c4ncc[nH]4)CC3)n2)c2ccccc21: inactive
- COc1cc(NC(=O)Nc2ccc(Br)cc2C(=O)Nc2ccc(Br)cc2)cc(OC)c1OC: inactive
- Cc1cccc2[nH]c(-c3ccc(-c4cccc(NC(=O)NCc5ccc(F)cc5)c4)cc3)nc12: active
- Cc1nc(-c2cccc(C(F)(F)F)c2)n2nc(Nc3ccc(OCCN4CCCC4)cc3)ncc12: inactive
- CCCN(CCC)S(=O)(=O)c1ccc(C(=O)N2CCC(C(=O)OCC)CC2)cc1: inactive
- C=CCNC(=O)CCCN=C(N)N: inactive
- COc1ccc(CCOc2c(C)nc(N)nc2N)cc1OC: active
- COc1cc2nc(Nc3ccc4c(c3)OCCO4)nc(N)c2cc1OC: inactive
- CCc1c(CCNCCCCCCNCCc2ccccc2)ccc(OC)c1OC: inactive
- CCCCNc1nc(NCCCC)c2c(C)c(Cc3ccccc3)c(NCCCC)nc2n1: active
- O=C(Nc1ccc(Cl)c(Cl)c1)Nc1ccc2nccc(N3CCN(Cc4ccccc4)CC3)c2c1: inactive
- N#Cc1ccc(-c2ccc(C(=O)NCCCCN3CCC(c4ccncc4)CC3)cc2)cc1: inactive

---

// reported inhibition for each item listed
Target: L-lactate dehydrogenase (Plasmodium falciparum (isolate CDC / Honduras)) (UniProt Q27743)
Sequence (Q27743 whole entry, looked up): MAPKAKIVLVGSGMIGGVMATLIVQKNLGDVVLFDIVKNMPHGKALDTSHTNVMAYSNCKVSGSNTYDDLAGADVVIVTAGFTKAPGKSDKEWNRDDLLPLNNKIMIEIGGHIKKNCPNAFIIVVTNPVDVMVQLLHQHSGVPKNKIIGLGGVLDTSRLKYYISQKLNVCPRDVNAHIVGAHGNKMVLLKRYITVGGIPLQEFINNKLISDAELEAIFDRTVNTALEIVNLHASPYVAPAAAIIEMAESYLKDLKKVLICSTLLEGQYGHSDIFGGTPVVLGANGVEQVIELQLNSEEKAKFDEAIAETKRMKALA
Assay: PfLDH activity inhibition – cell lysate, 3D7 strain, counter-screen for P. falciparum growth inhibition project (AID 2304);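 further: 0% = vehicle and 100% = reference inhibitor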
Details: P. falciparum 3D7 crude extract, LDH APAD/NBT absorbance; at 2 µM; hits give high values
measuredQuantity: inhibition (%)

• CC1CCCCN1S(=O)(=O)c1ccc(NC(=O)c2cc(-c3ccccc3O)n[nH]2)cc1 (stereo not given) = -1
• CC(Cc1ccc(OCC(=O)NCC2CCN(CCc3cccc(Cl)c3)CC2)cc1)NCCc1cccc(Cl)c1 (stereo not given) = -8
• CN1CCC(NCc2ccc(-c3ccc(S(=O)(=O)NCc4ccccc4)s3)cc2)CC1 = -3
• CC(C)NCc1ccc(-c2ccc(NC(=O)c3ccc(Cl)cc3)cc2)cc1 = 3
• CN1CCN(CC(=O)Nc2cccc(-c3cccc(-c4nc5ccccc5[nH]4)c3)c2)CC1 = 3

---

Assay: HepG2 cytotoxicity, primary screen, cytotoxicity control for P. falciparum antimalarial project, cell-based, ATP luminescence (AID 2303);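 further: 0% = DMSO wells and 100% = digitonin-killed cells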
Settings: HepG2 viability, 24-48 h, at 10 µM
The source made the active and inactive calls.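 Rule for the calls: active = inhibition above 50%; inactive = the rest.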
Classes used: true (active), false (inactive)

* COc1ccc(C2CC(=O)C3=C(C2)NC(C)=C(C(=O)OC(C)C)C3c2c(F)cccc2Cl)cc1OC (stereo not given) | false
* Clc1ccc(CNc2ccnc(NCc3ccc4c(c3)OCCCO4)n2)c(Cl)c1 | true
* Cc1cc(NCc2ccc(F)cc2)nc2cc(O)ccc12 | false
* CC[C@H](NC(=O)c1c(N)c(-c2sccc2Cl)nc2ccccc12)c1ccccc1 | false
* Cc1cc(NC(=O)c2ccco2)ccc1OC1CCN(Cc2ccc(F)cc2)CC1 | false
* CC(C)C(=O)NC(Nc1ccc([N+](=O)[O-])cc1)C(Cl)(Cl)Cl (stereo not given) | false
* CN1CCCc2cc(NC(=O)c3cc(-c4ccc(Cl)cc4)cs3)ccc2C1 | false
* CN(C1CCC(NC(=O)/C=C/c2ccccc2)CC1)C1CC2(CCN(C(=O)OC(C)(C)C)CC2)c2ccccc21 (stereo not given) | false
* CC[C@H]1CN(C/C=C/c2ccc(OC)cc2)CC[C@H]1CCCc1ccnc2ccc(O)cc12 | false
* O=C(NC1CCCCN(Cc2ccccc2O)C1)c1cc(F)cc(F)c1 (stereo not given) | false
* COc1ccc(N2CCN(c3nc(Nc4ccc(NC(C)=O)cc4)nc(N4CCCC4)n3)CC2)cc1 | false
* CC1(C)OC[C@]2(C)[C@@H](CC[C@]3(C)C4=CC(=O)CCC4CC[C@@H]23)O1 (stereo not given in full) | false
* CN1CCCC(CN2CCN(Cc3ccc(-c4ccc(-c5nc6ccccc6[nH]5)cc4)cc3)CC2)C1 (stereo not given) | true
* Nc1cc(-c2ccc3c(N)nccc3c2)ccc1Cl | false
* Cc1cc2nc(-c3cc(Br)ccc3O)c(-c3cc(Br)ccc3O)nc2cc1C | false
* O=C(Oc1ccc(C2CNCCc3c2cc(OC(=O)c2ccc(O)cc2)c(OC(=O)c2ccc(O)cc2)c3Cl)cc1)c1ccc(O)cc1 (stereo not given) | false
* Cc1nc2ccc3ccc(CNc4ccc5c(c4)CN([C@@H](CCC(=O)O)C(=O)O)C5=O)cc3c2c(=O)[nH]1 | false
* COc1cccc(Nc2nc(C)cc(NCc3ccc(-n4ccnc4)cc3)n2)c1 | false
* Cc1cc(=O)c(-c2ccc(Oc3ccc(Cl)cc3Cl)cc2)c(C)[nH]1 | false
* O=C(/C=C/c1cccc2c1OCO2)Nc1ccnc2ccncc12 | false
